MEASURED TARGET: UCHL5 Ubiquitin carboxyl-terminal hydrolase isozyme L5 (Homo sapiens, UniProt Q9Y5K5)
Construct: endogenous in cells; host or cells: MDA-MB-231 (soluble fraction of lysate)
Sequence (Q9Y5K5 1-329): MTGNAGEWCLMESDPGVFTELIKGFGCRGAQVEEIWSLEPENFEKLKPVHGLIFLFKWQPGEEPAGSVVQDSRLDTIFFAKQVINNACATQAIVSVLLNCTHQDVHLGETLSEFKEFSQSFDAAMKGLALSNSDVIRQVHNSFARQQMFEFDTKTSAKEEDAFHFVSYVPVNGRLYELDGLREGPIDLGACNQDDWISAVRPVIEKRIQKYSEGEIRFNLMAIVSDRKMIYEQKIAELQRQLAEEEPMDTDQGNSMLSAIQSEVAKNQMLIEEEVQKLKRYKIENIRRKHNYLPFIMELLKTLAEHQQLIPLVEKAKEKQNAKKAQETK
EXPERIMENT NOTES: competitive isoTOP-ABPP
Format: binding
MEASUREMENT CONDITIONS: Q9Y5K5_K323; 50 uM, 231 sol, in vitro
As shown below, each of these molecules has a reported R value (DMSO/fragment) for probe 1 labeling value.
Output spec: single numeric token, no unit.

// known answers, use as guide
• Cn1cc(CC(=O)Oc2c(F)c(F)c(F)c(F)c2F)c2ccccc21 = 0.8
• O=C(Oc1c(F)c(F)c(F)c(F)c1F)C(c1ccccc1)c1ccccc1 [fragment 20, Pentafluorophenyl 2,2-diphenylacetate] = 0.9
• O=C(CCc1cn(-c2ccccc2)nc1-c1ccccc1)Oc1c(F)c(F)c(F)c(F)c1F = 1.1

Reading of R value (DMSO/fragment) for probe 1 labeling for "O=C(Oc1c(F)c(F)c(F)c(F)c1F)c1cc(C(F)(F)F)cc(C(F)(F)F)c1" with UCHL5 Ubiquitin carboxyl-terminal hydrolase isozyme L5 (Homo sapiens, UniProt Q9Y5K5): 1.0
